assay_explanation: Half life in monkey at 0.3 mg/kg, iv
Type: ADME, organism-based, Macaca mulatta
cond: rhesus monkey, in vivo
assay_readout: half-life (h)

CCNC(=O)c1cc2c(-c3cc(C(C)(C)O)ccc3Oc3c(C)cc(F)cc3C)cn(C)c(=O)c2[nH]1 : 2

###

assay_explanation: Unbound hepatic clearance in rat liver microsomes
Assay type: ADME, Microsome
assay_readout: CL free (mL/min/kg)

Cc1cc(F)cc(C)c1Oc1ccc(C(C)(C)O)cc1-c1cn(C)c(=O)c2[nH]c(C(=O)NC3CC3)cc12 : 333
Cc1cc(F)cc(C)c1Oc1ccc(C(C)(C)O)cc1-c1cn(C)c(=O)c2[nH]c(C(=O)NC3(C)CC3(F)F)cc12 (stereo not drawn) : 1400
CCNC(=O)c1cc2c(-c3cc(S(=O)(=O)CC)ccc3Oc3c(C)cccc3C(F)(F)F)cn(C)c(=O)c2[nH]1 : 200
CCNC(=O)c1cc2c(-c3cc(S(=O)(=O)CC)ccc3Oc3c(C)cccc3C(F)F)cn(C)c(=O)c2[nH]1 : 200
CCNC(=O)c1cc2c(-c3cc(S(=O)(=O)CC)ccc3-c3ccccc3C)cn(C)c(=O)c2[nH]1 : 350
CCNC(=O)c1cc2c(-c3cc(C(C)(C)O)ccc3Oc3c(C)cccc3C)cn(C)c(=O)c2[nH]1 : 1080
CCNC(=O)c1cc2c(-c3cc(NC(C)=O)ccc3Oc3c(C)cccc3C)cn(C)c(=O)c2[nH]1 : 667
CCNC(=O)c1cc2c(-c3cc(C(C)(C)O)ccc3Oc3c(C)cc(F)cc3C)cn(C)c(=O)c2[nH]1 : 200

###

assay_explanation: Tmax in mouse at 1 mg/kg, po
Type: ADME, organism-based
cond: in vivo
assay_readout: Tmax

CCNC(=O)c1cc2c(-c3cc(C(C)(C)O)ccc3Oc3c(C)cc(F)cc3C)cn(C)c(=O)c2[nH]1 [ABBV-744] : 6 min

###

Entries and their measured pKi follow.
target_under_test: Bromodomain-containing protein 4 (Homo sapiens)
assay_explanation: biochemical
Type: cell-based
Description: Inhibition of human N-terminal His6 tagged BRD4 BD1 (57 to 168) residues expressed in Escherichia coli BL21(DE3) cells after 1 hr by TR-FRET assay
pKi: −log10 of the molar value.
assay_readout: pKi

CCNC(=O)c1cc2c(-c3cc(NS(=O)(=O)CC)ccc3Oc3c(C)cc(F)cc3C)cn(C)c(=O)c2[nH]1 : 7.31
Cc1cc(F)cc(C)c1Oc1ccc(C(C)(C)O)cc1-c1cn(C)c(=O)c2[nH]c(C(=O)NC3(C)CC3(F)F)cc12 (stereo unspecified) : 6.11
CCNC(=O)c1cc2c(-c3cc(NC(C)=O)ccc3Oc3c(C)cccc3C)cn(C)c(=O)c2[nH]1 : 7.12
CCNC(=O)c1cc2c(-c3cc(S(=O)(=O)CC)ccc3-n3ccc4cccc(C)c43)cn(C)c(=O)c2[nH]1 : 6.42
Cc1cc(F)cc(C)c1Oc1ccc(C(C)(C)O)cc1-c1cn(C)c(=O)c2[nH]c(C(=O)NC3CC3)cc12 : 6.64
CCNC(=O)c1cc2c(-c3cc(S(=O)(=O)CC)ccc3Oc3c(C)cc(Cl)cc3C)cn(C)c(=O)c2[nH]1 : 7.09
CCNC(=O)c1cc2c(-c3cc(S(=O)(=O)CC)ccc3Oc3c(C)cccc3C(F)(F)F)cn(C)c(=O)c2[nH]1 : 6.33
CCNC(=O)c1cc2c(-c3cc(C4(O)CCC4)ccc3Oc3c(C)cc(F)cc3C)cn(C)c(=O)c2[nH]1 : 6.66
CCNC(=O)c1cc2c(-c3cc(S(=O)(=O)C4CC4)ccc3Oc3c(C)cccc3C)cn(C)c(=O)c2[nH]1 : 7.42
CCNC(=O)c1cc2c(-c3cc(S(=O)(=O)CC)ccc3-n3ccc4ccccc43)cn(C)c(=O)c2[nH]1 : 6.85
CNC(=O)c1cc2c(-c3cc(C(C)(C)O)ccc3Oc3c(C)cc(F)cc3C)cn(C)c(=O)c2[nH]1 : 6.85
CCNC(=O)c1cc2c(-c3cc(S(=O)(=O)CC)ccc3Oc3c(C)cccc3C(F)F)cn(C)c(=O)c2[nH]1 : 6.80
CCNC(=O)c1cc2c(-c3cc(S(=O)(=O)CC)ccc3Oc3c(C)cccc3F)cn(C)c(=O)c2[nH]1 : 7.89
CCNC(=O)c1cc2c(-c3cc(NS(=O)(=O)CC)ccc3Oc3c(C)cccc3C)cn(C)c(=O)c2[nH]1 : 7.77
CCNC(=O)c1ccc(Oc2c(C)cccc2C)c(-c2cn(C)c(=O)c3[nH]c(C(=O)NCC)cc23)c1 : 6.89
CCNC(=O)c1cc2c(-c3cc(C4(O)CCOCC4)ccc3Oc3c(C)cc(F)cc3C)cn(C)c(=O)c2[nH]1 : 6.52
